# System: 521955-158-R2-J5-PDC complex spheroid growth
# EXPERIMENT DESCRIPTION: Anticancer human tumor 521955-158-R2-J5-PDC patient-derived pancreatic carcinoma cell line growth inhibition [AhR]
# TEST SETTINGS: curve of first compound; second compound 10 µM
# IC50 per record follows

Observe how each entry below is paired with its result.
## Task Identify measured IC50 associated with CC[C@@]1(O)C(=O)OCc2c1cc1n(c2=O)Cc2cc3c(CN(C)C)c(O)ccc3nc2-1 + Cc1ccccc1N=Nc1ccc(NC(=O)c2ccnn2C)c(C)c1
## Result 43.9 nM

## Task Using the record for CCN(c1cc(-c2ccc(CN3CCOCC3)cc2)cc(C(=O)NCc2c(C)cc(C)[nH]c2=O)c1C)C1CCOCC1 + Cc1cncc(-c2nc(NCCc3c[nH]c4ccccc34)c3ncn(C(C)C)c3n2)c1 , state its measured IC50.
## Result > 3000 nM

## Task Look up IC50 of CCc1c2c(nc3ccc(O)cc13)-c1cc3c(c(=O)n1C2)COC(=O)[C@]3(O)CC + Cc1ccccc1N=Nc1ccc(NC(=O)c2ccnn2C)c(C)c1 and report it.
## Result 7.1 nM

## Task Using known records, supply IC50 for Cn1ncnc1C1c2n[nH]c(=O)c3cc(F)cc(c23)NC1c1ccc(F)cc1 (stereo unspecified) + Cc1cncc(-c2nc(NCCc3c[nH]c4ccccc34)c3ncn(C(C)C)c3n2)c1
## Result > 100 nM

## Task Report IC50, nothing else, for this molecule: CC1(C)CCC(CN2CCN(c3ccc(C(=O)NS(=O)(=O)c4ccc(NCC5CCOCC5)c([N+](=O)[O-])c4)c(Oc4cnc5[nH]ccc5c4)c3)CC2)=C(c2ccc(Cl)cc2)C1 + Cc1cncc(-c2nc(NCCc3c[nH]c4ccccc34)c3ncn(C(C)C)c3n2)c1
## Result > 10000 nM

Shifting focus to the molecule that follows.
## Task Return IC50 for the following molecule: COc1ccc([C@@H](O)c2cc(-c3ncnc4cc(N5CCOCC5)ccc34)c(F)cc2Cl)nn1 + Cc1ccccc1N=Nc1ccc(NC(=O)c2ccnn2C)c(C)c1
## Result > 10000 nM
